In this section we review reported IC50 at 48 h values for a set of compounds.
assay.explanation: In vitro cytotoxic assay, Huh7-D12
Assay type: cell-based
test.settings: human, Huh7-D12 cells (liver cancer cell line)
Please respond with the number in µM and leave the unit unwritten.

Illustrative cases are given below, each with its answer.
[
  {
    "compound": "N#Cc1nc2c(ccc3c(=O)n(Cc4ccccc4)cnc32)s1",
    "IC50 at 48 h [µM]": 17
  },
  {
    "compound": "N#Cc1nc2ccc3c(=O)n(Cc4ccccc4)cnc3c2s1",
    "IC50 at 48 h [µM]": 18
  },
  {
    "compound": "COC(=N)c1nc2ccc3ncn(Cc4ccccc4)c(=O)c3c2s1 [Compound I, reference compound]",
    "IC50 at 48 h [µM]": 15
  }
]

Now turn to the next compound.
Note IC50 at 48 h for the compound shown: COC(=N)c1nc2cc3ncn(Cc4ccccc4)c(=O)c3cc2s1 1
